measurement-protocol: Quantitative High-Throughput drug screen in 47 multiple myeloma cell lines against the NCATS MIPE library collection: H1112_PLB cell viability assay (AID 1918967; also: nearly all actives have a fitted effect of over 30% in size)
experimental-setup: H1112 myeloma cells viability, ATP luminescence, 48 h; series mostly up to 45.8 µM
Records with an inconclusive call do not appear. Calls of active or inactive are those of the source. Calls follow the shape of the dose curve; as a rule, active = well fitted cell-killing curve with a large enough effect; inconclusive = small, poorly fitted or top-dose-only effect, or effect the other way; inactive = no such curve, though single readings can be large or run the other way. Positions of bridges follow the written chain, without caps; N, C: chain ends. Non-standard residues stand in square brackets, D forms with d. Residues, ends and D or L forms follow the SMILES beside them. ξ: configuration not given here. *: point of attachment. Octanoyl(6-Me) = CCC(C)CCCCC(=O)*; ξThr(3R) = C[C@@H](O)C(N)C(=O)O; dDab = NCC[C@@H](N)C(=O)O; Dab = NCC[C@H](N)C(=O)O
Answer with one of the outcomes given here: True for active, False for inactive

For orientation, consider the following solved cases.
CCCNS(=O)(=O)Nc1ncnc(OCCOc2ncc(Br)cn2)c1-c1ccc(Br)cc1: False
C[C@H](CCC(=O)O)[C@H]1CCC2C3C[C@H](O)[C@@H]4C[C@H](O)CC[C@]4(C)C3CC[C@@]21C (stereo not given in full): False
C=CC(=O)Nc1cccc(Nc2nc(NC3CCC(N(C)C)CC3)nc3c2ncn3C(C)C)c1 (stereo not given): True
COc1cccc2c1C(=O)c1c(O)c3c(c(O)c1C2=O)C[C@@](O)(C(=O)CO)C[C@@H]3O[C@H]1C[C@H](N)[C@H](OC2CCCCO2)[C@H](C)O1 (stereo not given in full): True
CCC(C)CCCCC(=O)N[C@@H](CCN)C(=O)NC(C(=O)N[C@H](CCN)C(=O)N[C@@H]1CCNC(=O)C([C@@H](C)O)NC(=O)[C@@H](CCN)NC(=O)[C@@H](CCN)NC(=O)[C@@H](CC(C)C)NC(=O)[C@H](Cc2ccccc2)NC(=O)[C@H](CCN)NC1=O)[C@@H](C)O (stereo partly drawn) ({Octanoyl(6-Me)}-[Dab][ξThr(3R)][dDab][dDab][Dab]F[dL][dDab][dDab][ξThr(3R)]; lactam 4-C): False
O=C(Nc1cccc(Nc2ncc(Br)c(NCCc3cnc[nH]3)n2)c1)N1CCCC1: True

Prompt line: Just curious, what result did `COC1=C2C[C@@H](C)C[C@H](OC)[C@@H](O)[C@@H](C)C=C(C)[C@H](OC(N)=O)[C@@H](OC)C=CC=C(C)C(=O)NC(=CC1=O)C2=O` get here?
Response line: True

Prompt line: Assay outcome for `Cc1onc(-c2ccccc2)c1C(=O)N[C@@H]1C(=O)N2[C@@H](C(=O)O)C(C)(C)S[C@@H]12` : what was it?
Response line: False

Prompt line: Outcome logged for CC(=O)C1=C(O)C=C2Oc3c(C(C)=O)c(O)c(C)c(O)c3C2(C)C1=O (stereo not given) in this assay:
Response line: False

Prompt line: Outcome logged for Oc1cc2c(cc1O)C1c3ccc(O)c(O)c3OCC1(O)C2 (stereo not given) in this assay:
Response line: False

Prompt line: Just curious, what result did `Cn1cc(C[C@@H](N)C(=O)O)c2ccccc21` get here?
Response line: False

Prompt line: Write down the call the test reported for this molecule. Item: `CCN(CC)Cc1ccc2cc(COC(=O)Nc3ccc(C(=O)NO)cc3)ccc2c1`
Response line: True

Prompt line: Outcome? COc1cc(C)c(Sc2cnc(NC(=O)c3ccc(CNC(C)C(C)(C)C)cc3)s2)cc1C(=O)N1CCN(C(C)=O)CC1 (stereo not given)
Response line: True

Prompt line: Answer briefly: the call reported for `COc1cccc2c1C(=O)c1c(O)c3c(c(O)c1C2=O)C[C@@](O)(C(=O)CO)C[C@@H]3O[C@H]1C[C@H](N)[C@@H](O)[C@H](C)O1` in this assay.
Response line: True

Prompt line: Field: outcome | Entry: `c1cc(CN2CCCNCCNCCCNCC2)ccc1CN1CCCNCCNCCCNCC1`
Response line: False

---

measurement-protocol: Quantitative High-Throughput drug screen in 47 multiple myeloma cell lines against the NCATS MIPE library collection: KMS11_JCRBsus cell viability assay (AID 1919873); also: nearly all actives have a fitted effect of over 50% in size
experimental-setup: KMS11 myeloma viability, CellTiter-Glo ATP luminescence, 48 h; series mostly up to 45.8 µM
Records with an inconclusive call do not appear. Active and inactive are the calls of the source. Calls follow the shape of the dose curve; as a rule, active = well fitted cell-killing curve with a large enough effect; inconclusive = small, poorly fitted or top-dose-only effect, or effect the other way; inactive = no such curve, though single readings can be large or run the other way.
Choose one outcome from this list and give only that: YES (active), NO (inactive)

c1cncc(CN2CCC(n3ncc4c(N5CCOCC5)nc(-c5ccc6[nH]ccc6c5)nc43)CC2)c1: YES
CCc1cnn2c(NCc3ccc[n+]([O-])c3)cc(N3CCCC[C@@H]3CCO)nc12: YES
CN1CCCN(C(=O)c2cccc(-c3ccc(C=C4C(=O)Nc5ccc(Cl)cc54)o3)c2)CC1: YES
N#CC(=C(O)c1ccc(Cl)cc1Cl)c1nc2cc(Cl)ccc2c(=O)[nH]1: NO
CCNC(=O)c1cc2c(-c3cc(OCCN4CCCC4)c(Cl)cc3Cl)nc(N)nc2s1: YES

Prompt line: What was the test verdict on `OC[C@@H](O)[C@@H](O)[C@H](O)[C@@H](O)CO` ?
Response line: NO

Prompt line: What did the test return for `CC(C)(O)[C@H]1CC[C@@](C)([C@H]2[C@@H](O)C[C@@]3(C)[C@@H]4C[C@H](O[C@@H]5O[C@H](CO)[C@@H](O)[C@H](O)[C@@H]5O)[C@H]5C(C)(C)[C@@H](O[C@@H]6OC[C@@H](O)[C@H](O)[C@@H]6O)CC[C@@]56C[C@@]46CC[C@]23C)O1` ?
Response line: NO

Prompt line: Please share the test call associated with `C=CC(=O)Nc1cc(NC(=O)c2ccc(C)c(NC(=O)c3ccno3)c2)cc(C(F)(F)F)c1` .
Response line: YES

---

Test system: WaGa
measurement-protocol: qHTS assay to identify novel small-molecules to repurpose for Merkel cell carcinoma treatment (AID 1296009); also: nearly all actives have a fitted effect of over 60% in size
experimental-setup: MCC and control cell lines, CellTiter-Glo viability, 72 h; series mostly up to 46 µM
Inconclusive results are not listed. The source made the active and inactive calls. The call rests on the fitted dose curve; in most records, active means well fitted inhibition curve with a large enough effect; inconclusive means small, poorly fitted or top-dose-only effect; inactive means flat fitted curve, though single readings scatter.
Response enum: active, inactive

Check out these entries, answers already filled in.
C[C@H](CCC(=O)O)[C@H]1CCC2C3C[C@H](O)[C@@H]4C[C@H](O)CC[C@]4(C)C3CC[C@@]21C (stereo not given in full): inactive
Nc1ccn(C[C@@H](CO)OCP(=O)(O)O)c(=O)n1: inactive
C=CCNc1c(O)cc2c(O)c1C[C@@H](C)C[C@H](OC)[C@@H](O)[C@@H](C)C=C(C)[C@H](OC(N)=O)[C@@H](OC)C=CC=C(C)C(=O)N2: active
O=C(Nc1cccc(Nc2ncc(Br)c(NCCc3cnc[nH]3)n2)c1)N1CCCC1: active

Now for another entry.
Prompt line: Outcome logged for `O=C(C=Cc1ccc(CN(CCO)CCc2c[nH]c3ccccc23)cc1)NO` in this assay:
Response line: active

---

measurement-protocol: Quantitative High-Throughput drug screen in 47 multiple myeloma cell lines against the NCATS MIPE library collection: KMS12BM_JCRB cell viability assay (AID 1918971); also: nearly all actives have a fitted effect of over 35% in size; also: potency is read from the fitted curve at half-maximal effect
experimental-setup: KMS12BM myeloma viability, CellTiter-Glo ATP, 48 h; series mostly up to 45.8 µM
Results filed as inconclusive are left out. Active and inactive are the calls of the source. Calls come from the whole dose curve; as a rule, active = well fitted cell-killing curve with a large enough effect; inconclusive = small, poorly fitted or top-dose-only effect, or effect the other way; inactive = no such curve, though single readings can be large or run the other way.
parameter-measured: Potency

C[C@]12CC[C@@H]3c4ccc(O)cc4CC[C@H]3[C@H]1CC[C@H]2O: 33.2 µM (active)
C=CC1=C(C(=O)O)N2C(=O)[C@@H](NC(=O)C(=NO)c3csc(N)n3)[C@H]2SC1: inactive
Cc1onc(-c2ccccc2)c1C(=O)N[C@@H]1C(=O)N2[C@@H](C(=O)O)C(C)(C)S[C@@H]12: inactive
CN1CCCN(C(=O)c2cccc(-c3ccc(C=C4C(=O)Nc5ccc(Cl)cc54)o3)c2)CC1: 23.5 µM (active)
CC(C)C[C@H](NC(=O)[C@@H](NC(=O)c1cccc(-c2ccccc2)n1)[C@@H](C)O)B(O)O: 0.0372 µM (active)
C[C@]12C=CC(=O)N[C@@H]1CC[C@H]1[C@H]3CC[C@@H](C(=O)Nc4cc(C(F)(F)F)ccc4C(F)(F)F)[C@@]3(C)CC[C@@H]12: 20.9 µM (active)

Prompt line: Could you share which Potency value was measured for `COc1cc(C=CC(=O)CC(=O)C=Cc2ccc(O)c(OC)c2)ccc1O` ?
Response line: 19.1 µM (active)

Prompt line: Fill blank: measured Potency of the molecule `COC[C@H](NC(=O)c1cnc(C)s1)C(=O)N[C@@H](COC)C(=O)N[C@@H](Cc1ccccc1)C(=O)[C@@]1(C)CO1` is ____.
Response line: 0.0935 µM (active)

---

measurement-protocol: Quantitative High-Throughput drug screen in 47 multiple myeloma cell lines against the NCATS MIPE library collection: MOLP8_DSMZ cell viability assay (AID 1918977); also: nearly all actives have a fitted effect of over 45% in size
experimental-setup: MOLP8 myeloma viability, CellTiter-Glo ATP luminescence, 48 h; series mostly up to 45.8 µM
Inconclusive results are not listed. Active and inactive are the calls of the source. Calls follow the shape of the dose curve; as a rule, active = well fitted cell-killing curve with a large enough effect; inconclusive = small, poorly fitted or top-dose-only effect, or effect the other way; inactive = no such curve, though single readings can be large or run the other way.
Return exactly one item of active, inactive

Completed entries (count: 6):
C[C@H](NCc1ccc(OCc2cccc(F)c2)cc1)C(N)=O: active
Cc1cc(O)c2c(c1)C(=O)c1cccc(O)c1C2=O: inactive
CC(=O)OCC(=O)[C@@]12N=C(C)O[C@H]1C[C@H]1[C@@H]3CCC4=CC(=O)C=C[C@]4(C)[C@@H]3[C@@H](O)C[C@@]12C: active
CN(C)c1ccc(C(=O)NCCCCCCC(=O)NO)cc1: active
CC(C)C[C@H](NC(=O)[C@@H](NC(=O)c1cccc(-c2ccccc2)n1)[C@@H](C)O)B(O)O: active
C[C@](Cc1c[nH]c2ccccc12)(NC(=O)OC1C2CC3CC(C2)CC1C3)C(=O)NC[C@H](NC(=O)CCC(=O)O)c1ccccc1 (some centres not stated): inactive

Prompt line: Which outcome was assigned to `Cc1ccc(-n2[nH]c(C)c(N=Nc3cccc(-c4cccc(C(=O)O)c4)c3O)c2=O)cc1C` in this test?
Response line: active

Prompt line: # fetch the recorded call for `CS[C@H]1SC[C@@H]2C(=O)N(C)[C@H](C(C)C)C(=O)OC[C@H](NC(=O)c3cnc4ccccc4n3)C(=O)N[C@H](C)C(=O)N(C)[C@@H]1C(=O)N(C)[C@H](C(C)C)C(=O)OC[C@H](NC(=O)c1cnc3ccccc3n1)C(=O)N[C@H](C)C(=O)N2C` here
Response line: active

Prompt line: Can you look up the reported call for `COC(=O)[C@@H]1CC2=CC(=O)CC[C@]2(C)[C@@]23O[C@@H]2C[C@@]2(C)[C@H](CC[C@@]24CCC(=O)O4)[C@@H]13` for me?
Response line: inactive

Prompt line: Dear colleague, could you share the recorded outcome for `CCc1c(O)cc(O)c(C(=O)c2ccc(OCCN3CCOCC3)c(OC)c2)c1CC(=O)N(CCOC)CCOC` when you have a moment?
Response line: active

Prompt line: What did this assay record as the result for `CC(C)N(CC[C@H](c1ccccc1)c1cc(CO)ccc1O)C(C)C` ?
Response line: inactive

Prompt line: Dear all, I need the recorded test outcome for `CCNC(=O)c1cc2c(-c3cc(OCCN4CCCC4)c(Cl)cc3Cl)nc(N)nc2s1` , thank you.
Response line: active

Prompt line: Which result was noted for this molecule in the test: `COc1ccc(S(=O)(=O)Nc2cc(-c3c(O)ccc4ccccc34)c(O)c3ccccc23)cc1`
Response line: active

Prompt line: Please indicate how the test categorized `O=C(Nc1cccc(Nc2ncc(Br)c(NCCc3cnc[nH]3)n2)c1)N1CCCC1` .
Response line: active
